Below, each entry is listed with its recorded IC50.
Biological target: WHSC1 941–1240 (Homo sapiens, UniProt O96028)
Sequence (O96028 941-1240): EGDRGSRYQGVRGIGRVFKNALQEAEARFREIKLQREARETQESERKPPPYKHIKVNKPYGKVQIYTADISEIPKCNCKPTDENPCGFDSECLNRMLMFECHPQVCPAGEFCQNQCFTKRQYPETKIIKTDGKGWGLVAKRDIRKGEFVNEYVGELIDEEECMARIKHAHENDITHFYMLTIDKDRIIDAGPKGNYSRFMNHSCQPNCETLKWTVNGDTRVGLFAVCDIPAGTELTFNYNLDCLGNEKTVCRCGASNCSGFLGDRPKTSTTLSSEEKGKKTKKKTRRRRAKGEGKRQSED
Square brackets hold non-standard residues; d marks the D form. Peptide text beside a SMILES is read from it. Nle = CCCC[C@H](N)C(=O)O
Answers without a unit are incomplete; give the number and then its unit.

Examples with their reported IC50 follow.
INSERT INTO assay_data (compound, system_name, reading) VALUES
  ('CCCC[C@H](NC(=O)[C@@H](NC(C)=O)C(C)C)C(=O)N[C@@H](CCCNC(=N)N)C(=O)N[C@H](C(=O)N[C@@H](CO)C(N)=O)[C@@H](C)CC [PTD6] (Ac-V[Nle]RIS-NH2)', 'WHSC1 941–1240 (Homo sapiens, UniProt O96028)', '110 µM'),
  ('CCCC[C@H](NC(=O)[C@@H](NC(=O)CNC(=O)CNC(=O)[C@H](CCCNC(=N)N)NC(=O)[C@H](CCCNC(=N)N)NC(=O)[C@H](C)NC(=O)[C@H](CC(C)C)NC(=O)[C@H](CCCNC(=N)N)NC(C)=O)C(C)C)C(=O)N[C@@H](CCCNC(=N)N)C(=O)N[C@H](C(=O)N[C@@H](CO)C(=O)NCC(=O)N[C@@H](CC(C)C)C(=O)N[C@H](C(N)=O)[C@@H](C)CC)[C@@H](C)CC [PTD1] (Ac-RLARRGGV[Nle]RISGLI-NH2)', 'WHSC1 941–1240 (Homo sapiens, UniProt O96028)', '0.088 µM');

Please look at this compound and report its IC50: CCCC[C@H](NC(C)=O)C(=O)N[C@@H](CCCNC(=N)N)C(=O)N[C@H](C(=O)N[C@@H](CO)C(=O)NCC(N)=O)[C@@H](C)CC [PTD7] (Ac-[Nle]RISG-NH2) 200 µM

Data origin: paper PMC5942779
